Target: human recombinant LPA2 expressed in CHO cells (Homo sapiens, UniProt Q9HBW0)
Construct: expressed in transfected cells; host or cells: CHO (CHO-hLPA2 cell line)
Sequence (Q9HBW0 whole entry): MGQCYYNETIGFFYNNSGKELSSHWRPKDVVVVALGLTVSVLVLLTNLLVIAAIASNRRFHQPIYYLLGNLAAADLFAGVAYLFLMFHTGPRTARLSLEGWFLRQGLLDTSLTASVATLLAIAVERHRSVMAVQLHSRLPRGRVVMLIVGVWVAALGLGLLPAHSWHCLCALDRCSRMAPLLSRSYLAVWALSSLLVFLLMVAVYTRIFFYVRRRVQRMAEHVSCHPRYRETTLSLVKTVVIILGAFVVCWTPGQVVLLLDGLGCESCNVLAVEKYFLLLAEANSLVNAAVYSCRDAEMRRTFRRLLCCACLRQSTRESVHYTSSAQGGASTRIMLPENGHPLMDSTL
Test: FLIPR calcium mobilization assay, LPA2 antagonism in CHO-hLPA2 cells
Type: cell-based
Details: CHO-hLPA2 cells, inhibition of LPA EC80 Ca2+ response, 30 min pre-incubation; read-out: LPA2 IC50
Readout type: IC50

{"Molecule": "COC(=O)Nc1nc(C)c(S(=O)(=O)N2CCN(C[C@H](C)Nc3nc(C4CC4)nc4c(C)cccc34)CC2)s1", "Readout type": "IC50", "Value observed": "10 to 100 nM"}
{"Molecule": "Cc1noc(-c2ccc(S(=O)(=O)N3CCN(C[C@H](C)Nc4ncnc5c(C(=O)N6CC7CC7C6)cccc45)CC3)s2)c1C (mixture of isomers)", "Readout type": "IC50", "Value observed": "< 10 nM"}

What is its IC50 for human recombinant LPA2 expressed in CHO cells (Homo sapiens, UniProt Q9HBW0)? Entry: Cc1noc(-c2ccc(S(=O)(=O)N3CCN(C[C@H](C)Nc4ncnc5c(C(=O)N(C)C)cccc45)CC3)s2)c1C
< 10 nM

###

Listed here: items and their measured IC50.
Target: human recombinant LPA2 expressed in CHO cells (Homo sapiens)
Construct: expressed in transfected cells; host or cells: CHO (CHO-hLPA2 cell line)
Test: FLIPR calcium mobilization assay, LPA2 antagonism in CHO-hLPA2 cells
Type: cell-based
Conditions: CHO-hLPA2 cells, inhibition of LPA EC80 Ca2+ response, 30 min pre-incubation; read-out: LPA2 IC50

{"Compound": "C[C@@H](CN1CCN(S(=O)(=O)c2ccc(-c3ccno3)o2)CC1)Nc1ncnc2c(C(F)(F)F)cccc12", "IC50": "< 1000 nM"}
{"Compound": "Cc1noc(-c2ccc(S(=O)(=O)N3CCN(C[C@H](C)Nc4ncnc5c(CN(C)C)cccc45)CC3)s2)c1C", "IC50": "< 1000 nM"}
{"Compound": "COC(=O)Nc1ncc(S(=O)(=O)N2CCN(C[C@H](C)Nc3ncnc4c(C(F)(F)F)cccc34)CC2)s1", "IC50": "< 1000 nM"}
{"Compound": "COC(=O)Nc1nc(C)c(S(=O)(=O)N2CCN(C[C@H](C)Nc3ncnc4c(C(=O)N5CC6CC6C5)cccc34)CC2)s1 (mixture of isomers)", "IC50": "10 to 100 nM"}
{"Compound": "COC(=O)Nc1nc(C)c(S(=O)(=O)N2CCN(C[C@H](C)Nc3ncnc4c(C(=O)N5CCC[C@H]5C(F)(F)F)cccc34)CC2)s1 (racemic)", "IC50": "< 1000 nM"}

Fill in the blank: the reported IC50 of COC(=O)Nc1nc(C)c(S(=O)(=O)N2CCN(C[C@H](C)Nc3ncnc4c(C(=O)N5CCC[C@@H]5C)cccc34)CC2)s1 (racemic) is ____.
10 to 100 nM

Same thing, different compound: C[C@@H](CN1CCN(S(=O)(=O)c2ccc(Cl)c(Cl)c2)CC1)Nc1ncnc2c(Cl)cccc12
< 1000 nM

Similarly, COC(=O)Nc1nc(C)c(S(=O)(=O)N2CCN(C[C@H](C)Nc3ncnc4c(OC(F)(F)F)cccc34)CC2)s1 ?
10 to 100 nM

Now consider COC(=O)Nc1nc(C)c(S(=O)(=O)N2CCN(C[C@H](C)Nc3ncnc4c(C(=O)N5CCC[C@@H]5C(F)(F)F)cccc34)CC2)s1 (racemic) .
10 to 100 nM

Query COC(=O)N(C)c1nc(C)c(S(=O)(=O)N2CCN(C[C@H](C)Nc3ncnc4c(C(F)(F)F)cccc34)CC2)s1 next
10 to 100 nM

Please give the result for C[C@@H](CN1CCN(S(=O)(=O)c2ccc(-c3ccon3)s2)CC1)Nc1ncnc2c(C(F)(F)F)cccc12 too.
10 to 100 nM

// same read-out, input: COC(=O)Nc1nc(C)c(S(=O)(=O)N2CCN(C[C@H](C)Nc3ncnc4c(C(=O)OC)cccc34)CC2)s1
10 to 100 nM

Another compound to check: Cc1noc(-c2ccc(S(=O)(=O)N3CCN(C[C@H](C)Nc4ncnc5c(OC(F)F)cccc45)CC3)s2)c1C
10 to 100 nM
